System: 40 different bacterial species
procedure_text: Prestwick Chemical Library growth screen, whole panel (hits, anticommensal activity)
Type: cell-based, human gut isolates
experimental_parameters: number of the 40 bacterial species tested whose growth is inhibited; Table 7 broad-spectrum compounds
Counter-ions that a name gives are not always drawn.
Catalogue of compounds with associated n_hit
reported_property: n_hit

- O=C(O)Cc1cc(I)c(Oc2ccc(O)c(I)c2)c(I)c1: 14
- Clc1ccc(Cn2c(CN3CCCC3)nc3ccccc32)cc1 [Clemizole hydrochloride]: 15
- COc1ccc(CCN2CCC(Nc3nc4ccccc4n3Cc3ccc(F)cc3)CC2)cc1: 10
- O=c1oc2ccccc2c(O)c1Cc1c(O)c2ccccc2oc1=O: 10
- CCOC(=O)N1CCC(=C2c3ccc(Cl)cc3CCc3cccnc32)CC1: 15
- CCN(CC)C(C)CN1c2ccccc2Sc2ccccc21 (centres unmarked) [Ethopropazine hydrochloride]: 11
- O=C1c2c(O)cccc2Cc2cccc(O)c21: 11
- CC(C)COCC(CN(Cc1ccccc1)c1ccccc1)N1CCCC1 (centres unmarked) [Bepridil hydrochloride]: 14
- CCCCC(=O)O[C@H]1CC[C@H]2[C@@H]3CCc4cc(O)ccc4[C@H]3CC[C@]12C [Estradiol Valerate]: 11
- Cc1c(C)c2c(c(C)c1O)CCC(C)(COc1ccc(CC3SC(=O)NC3=O)cc1)O2 (centres unmarked): 13
- CC(=O)Oc1cccc2c1C(=O)c1c(OC(C)=O)cc(C(=O)O)cc1C2=O: 33
- CSc1ccc2c(c1)C(N1CCN(C)CC1)Cc1ccccc1S2.O=C(O)/C=C\C(=O)O (centres unmarked) [Methiothepin maleate]: 10
- CCCCc1oc2ccccc2c1C(=O)c1cc(I)c(OCCN(CC)CC)c(I)c1 [Amiodarone hydrochloride]: 10
- C[C@@H](O[C@H]1OCCN(Cc2n[nH]c(=O)[nH]2)[C@H]1c1ccc(F)cc1)c1cc(C(F)(F)F)cc(C(F)(F)F)c1 [Aprepitant]: 10
